Tested on: TNFα release from mononuclear cells
PROTOCOL DETAILS: Test 4: cytokine release from LPS-stimulated mononuclear cells, TNFα
Format: cell-based
EXPERIMENTAL CONTEXT: Homo sapiens, read-out: Test 4 residual activity (TNFα release), percent of control
Define the label as 1.0 when activity at 10 µM is strictly less than 80% and as 0.0 in all remaining cases.

Observe how each entry below is paired with its result.
[[record]]
compound = "CC(C)(C)c1cc(-c2cc(CCCO)on2)cc(C(C)(C)C)c1O"
subject_of_test = "TNFα release from mononuclear cells"
classification = 0.0

[[record]]
compound = "CC(C)(C)c1cc(C2=NOC(c3ccccn3)C2)cc(C(C)(C)C)c1O (stereo not drawn)"
subject_of_test = "TNFα release from mononuclear cells"
classification = 1.0

[[record]]
compound = "CCOC(=O)CNC(=O)OCCCc1cc(-c2cc(C(C)(C)C)c(O)c(C(C)(C)C)c2)no1"
subject_of_test = "TNFα release from mononuclear cells"
classification = 0.0

[[record]]
compound = "CC(C)(C)c1cc(-c2cc(CNS(=O)(=O)C(F)(F)F)on2)cc(C(C)(C)C)c1O"
subject_of_test = "TNFα release from mononuclear cells"
classification = 0.0


Enquiry: Here's an entry: CC(C)(C)c1cc(-c2cc(/C=C/C(=O)O)on2)cc(C(C)(C)C)c1O . Is its activity at 10 µM below 80%?
Return: 1.0

Enquiry: Here's an entry: CC(C)(C)c1cc(C2CC(c3nccs3)=NO2)cc(C(C)(C)C)c1O (stereo not drawn) . Is its activity at 10 µM below 80%?
Return: 1.0

###

System: polymorphonuclear leucocytes (PMNL)
PROTOCOL DETAILS: Test 1: Release of proteolytic activity from human PMNL
Format: cell-based
EXPERIMENTAL CONTEXT: Homo sapiens, PMNL, 1 μM; read-out: Test 1 residual activity (release of proteolytic activity), percent of control
Structures can show the parent of a compound that is named as a salt.
QUANTITY: activity at 1 µM
Please don't drop the unit; write it after the number.

Guide cases for activity at 1 µM, answers given:
[[record]]
compound = "CC(C)(C)c1cc(-c2cc(CNS(=O)(=O)C(F)(F)F)on2)cc(C(C)(C)C)c1O [Example 49]"
reported_measurement = "88%"

[[record]]
compound = "CC(OC(=O)[C@@H](N)Cc1ccccc1)C1CC(c2cc(C(C)(C)C)c(O)c(C(C)(C)C)c2)=NO1 (single isomer, unassigned) [Example 75, hydrochloride]"
reported_measurement = "89%"


Enquiry: For the record CC(=O)c1cc(-c2cc(C(C)(C)C)c(O)c(C(C)(C)C)c2)no1 [Example 59] , what value of activity at 1 µM is listed for polymorphonuclear leucocytes (PMNL)?
Return: 91%

###

Overview of recorded inhibition in vivo at 50 mg/kg for various compounds
Test system: adjuvant/arthritis model
PROTOCOL DETAILS: Test 6: antiarthritic effect in the adjuvant/arthritis model
Format: in vivo, rat (Wistar-Lewis)
EXPERIMENTAL CONTEXT: Rattus norvegicus, po, 408 h, 50 mg/kg orally, daily for 17 days; rat; read-out: Test 6 Paw volume (% inhibition)
Unit % implied. Number only.

[[record]]
compound = "CC(C)(C)c1cc(C2=NOC(c3ccsc3)C2)cc(C(C)(C)C)c1O (stereo not shown)"
subject_of_test = "adjuvant/arthritis model"
reported_measurement = 67

[[record]]
compound = "CC(O)Cc1cc(-c2cc(C(C)(C)C)c(O)c(C(C)(C)C)c2)no1 (stereo not shown)"
subject_of_test = "adjuvant/arthritis model"
reported_measurement = 63

[[record]]
compound = "CC(C)(C)c1cc(C2=NOC3(CC3)C2)cc(C(C)(C)C)c1O"
subject_of_test = "adjuvant/arthritis model"
reported_measurement = 82


// switching to the query compound
Enquiry: For the record CCCCCCCCCCCCCCCC(=O)O[C@H](C)[C@@H]1CC(c2cc(C(C)(C)C)c(O)c(C(C)(C)C)c2)=NO1 (relative stereo) , what value of inhibition in vivo at 50 mg/kg is listed for adjuvant/arthritis model?
Return: 67

These entries and their values trace back to patent US5814627A.
